B1: POU domain, class 6, transcription factor 2, residues 609 to 663; numbered along this chain, P78424 (parent)
chain: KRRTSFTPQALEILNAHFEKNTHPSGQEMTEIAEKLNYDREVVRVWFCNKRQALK

# Variants of: B1
# testProtocol: abundance fitness (aPCA) (normalised: wild type 0, dead -1); higher = more abundant; growth selection in yeast, the domain comes from the species named
# measurementContext: Homo sapiens
measuredProperty: abundance fitness
Please reply with the value in numeric form only.

Below are worked cases with known answers.
H23Q :: -0.029
K1G :: 0.157
V43L :: -0.201
A53R :: -0.194
K35N :: -0.255
K55V :: -0.304
L54T :: -0.217
P24F :: -0.916
D39N :: -0.138
F6N :: -0.267

Would you kindly look at the next entry?
Quickly give me recorded abundance fitness for H23G
-0.217
